- target or system: T1, human IL-1α (human, UniProt P01583 113-271)
- T1 construct: also called IL-1alpha; hIL-1α
- T1 sequence (looked up): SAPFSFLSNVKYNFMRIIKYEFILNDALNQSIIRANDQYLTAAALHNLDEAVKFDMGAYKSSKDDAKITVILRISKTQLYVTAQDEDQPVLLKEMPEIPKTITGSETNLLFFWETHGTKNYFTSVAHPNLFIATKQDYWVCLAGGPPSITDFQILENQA
- protocol text: Table 62 IC50; RBA presumed
metric: IC50 (nM)

ABT1-95-150 (other, VK dAb) VL: DIQMTQSPSSLSASVGDRVTITCRASQHIVRNLRWYQQKPGKAPKLLIYSSSYLEPGVPSRFSGSGSGTDFTLTISSLQPEDFATYHCQQGYRWPVTFGQGTKVEIKR    0.2

I. ABT1-141-9 (other, VK dAb) VL: DIQVTQSPSSLSASVGDRVTITCRASQWIQKQLAWYQQKPGKAPKLLIYSSSWLQSGVPSRFSGSGSGTDFTLTISSLQPEDFATYYCQQHLRVPFTFGQGTKVEIKR
II. ABT1-95-71 (other, VK dAb) VL: DIQMTQSPSSLSASVGDRVTITCRASQPIVRNLRWYQQKPGKAPKLLIYNSSYLEPGVPSRFSGSGSGTDFTLTISSLQPEDFATYHCQQGYRWPVTFGQGTKVEIKR
Select one. Lower IC50: I or II # answer = label of selected item
II
